Origin of the recorded values: ChEMBL document CHEMBL5291721

Entries annotated with measured AC50
- ASSAY TARGET: Alpha-2C adrenergic receptor (Homo sapiens, UniProt P18825); also: assay procedure not described here
- Sequence (P18825 whole entry): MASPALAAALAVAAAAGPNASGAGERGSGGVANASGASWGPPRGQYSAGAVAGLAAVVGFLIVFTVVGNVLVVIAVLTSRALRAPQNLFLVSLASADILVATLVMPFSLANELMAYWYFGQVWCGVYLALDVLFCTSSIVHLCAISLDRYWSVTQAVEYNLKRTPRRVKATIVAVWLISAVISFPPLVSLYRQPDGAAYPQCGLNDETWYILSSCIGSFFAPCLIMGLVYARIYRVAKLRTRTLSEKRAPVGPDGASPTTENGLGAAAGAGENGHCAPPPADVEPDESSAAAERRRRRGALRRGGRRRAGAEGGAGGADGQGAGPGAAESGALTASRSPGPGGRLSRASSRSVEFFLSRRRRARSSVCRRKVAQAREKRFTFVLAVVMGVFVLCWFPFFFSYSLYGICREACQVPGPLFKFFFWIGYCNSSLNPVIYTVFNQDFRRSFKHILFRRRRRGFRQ
- Format: functional

Solved entries:
{"COMPOUND": "Cc1cc2c(OCC(CNC(C)(C)C)OC(=O)c3ccccc3)cccc2[nH]1 (centres undefined)", "QUANTITY": "AC50", "VALUE MEASURED": "3 µM"}
{"COMPOUND": "N[C@@H](C(=O)N[C@@H]1C(=O)N2C(C(=O)O)=C(Cl)CS[C@H]12)c1ccccc1 [CEFACLOR ANHYDROUS]", "QUANTITY": "AC50", "VALUE MEASURED": "> 30 µM"}
{"COMPOUND": "C#C[C@]1(O)CC[C@H]2[C@@H]3CCC4=CCCC[C@@H]4[C@H]3CC[C@@]21C", "QUANTITY": "AC50", "VALUE MEASURED": "> 30 µM"}

Query :: Please look at this compound and report its AC50: CCC(=O)OCC(=O)[C@@]1(OC(=O)CC)[C@H](C)C[C@H]2[C@H]3[C@H]([C@@H](O)C[C@@]21C)[C@@]1(C)C=CC(=O)C=C1C[C@H]3Cl [ALCLOMETASONE DIPROPIONATE]
Result :: > 30 µM

---

Motilin receptor (Homo sapiens): recorded AC50 for assorted molecules; also: assay procedure not described here
Sequence (O43193 whole entry): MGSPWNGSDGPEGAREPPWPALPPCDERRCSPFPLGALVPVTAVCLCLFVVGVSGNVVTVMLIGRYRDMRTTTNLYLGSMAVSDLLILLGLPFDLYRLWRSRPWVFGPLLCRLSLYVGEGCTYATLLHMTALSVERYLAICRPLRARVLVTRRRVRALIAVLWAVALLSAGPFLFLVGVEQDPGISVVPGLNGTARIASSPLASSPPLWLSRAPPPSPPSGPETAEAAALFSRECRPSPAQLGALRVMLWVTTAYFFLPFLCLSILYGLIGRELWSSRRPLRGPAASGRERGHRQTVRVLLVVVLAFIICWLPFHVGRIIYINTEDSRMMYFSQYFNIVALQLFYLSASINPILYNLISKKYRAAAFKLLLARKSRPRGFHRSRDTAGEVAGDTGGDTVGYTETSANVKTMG

These solved cases illustrate the format of a correct answer.
{"MOLECULE": "C#CC1(OC(N)=O)CCCCC1 [ETHINAMATE]", "ASSAY TARGET": "Motilin receptor (Homo sapiens)", "QUANTITY": "AC50", "VALUE MEASURED": "> 10 µM"}
{"MOLECULE": "Cc1c(O)c(=O)ccn1C", "ASSAY TARGET": "Motilin receptor (Homo sapiens)", "QUANTITY": "AC50", "VALUE MEASURED": "> 30 µM"}
{"MOLECULE": "CCCOc1ccc(C(=O)OCCN(CC)CC)cc1N", "ASSAY TARGET": "Motilin receptor (Homo sapiens)", "QUANTITY": "AC50", "VALUE MEASURED": "> 30 µM"}
{"MOLECULE": "COC(=O)N[C@H](C(=O)N1CCC[C@H]1c1nc(-c2ccc(-c3ccc(-c4c[nH]c([C@@H]5CCCN5C(=O)[C@@H](NC(=O)OC)C(C)C)n4)cc3)cc2)c[nH]1)C(C)C", "ASSAY TARGET": "Motilin receptor (Homo sapiens)", "QUANTITY": "AC50", "VALUE MEASURED": "> 30 µM"}
{"MOLECULE": "COC(=O)[C@H]1[C@@H](OC(=O)c2ccccc2)C[C@@H]2CC[C@H]1N2C", "ASSAY TARGET": "Motilin receptor (Homo sapiens)", "QUANTITY": "AC50", "VALUE MEASURED": "> 30 µM"}
{"MOLECULE": "CC(C)Cc1ccc(CC(=O)O)cc1", "ASSAY TARGET": "Motilin receptor (Homo sapiens)", "QUANTITY": "AC50", "VALUE MEASURED": "> 30 µM"}

Query :: # return AC50 for CN(C)C(=O)OC1N=C(c2ccccc2)c2cc(Cl)ccc2N(C)C1=O (centres undefined) , test system: Motilin receptor (Homo sapiens); also: assay procedure not described here
Result :: > 10 µM

Query :: Name the value of AC50 reported for `CC(C)(N)Cc1ccc(Cl)cc1` when tested on Motilin receptor (Homo sapiens). Also: assay procedure not described here.
Result :: > 10 µM

Query :: Fill in AC50 for `CCC[C@@H]1C[C@@H](C(=O)N[C@@H]([C@H]2O[C@H](SC)[C@H](O)[C@@H](O)[C@H]2O)[C@H](C)Cl)N(C)C1` tested with Motilin receptor (Homo sapiens).
Result :: > 10 µM

Query :: Tell me its AC50 on Motilin receptor (Homo sapiens): CCNC(C)Cc1cccc(C(F)(F)F)c1 (centres undefined)
Result :: > 10 µM
